For each of the molecules below, state its AC50.
# Experimental system: human PAH with the R408W mutation (Homo sapiens, UniProt P00439, R408W)
# Construct: expressed in transfected cells
# Test summary: Cell Based Phenylalanine Flux Assay
# Condition summary: A375 cells expressing human R408W PAH; 24 hrs compound incubation; 13C-Tyrosine by LC-MS; average where tested multiple times; read-out: AC50

Value lookup for AC50; key = CC(C)(O)c1nc(C(F)(F)F)c(C(=O)N2CCc3[nH]cnc3[C@H]2c2nc3ccccc3s2)o1
< 500 nM

Would you mind doing O=C(c1ccnn1C(F)F)N1CCc2[nH]cnc2[C@@H]1c1nc2c(F)cccc2s1 as well?
1000 to 5000 nM

Now try O=C(c1oc(-c2ccccn2)nc1C(F)(F)F)N1CC2(CC2)c2[nH]cnc2[C@@H]1c1nc2ccccc2s1 .
1000 to 5000 nM

Also, [2H]c1nc2c([nH]1)CCN(C(=O)c1cnco1)[C@@H]2c1nc2c(F)cccc2s1 please.
500 to 1000 nM

Check CC(C)(O)c1nc(Br)c(C(=O)N2CCc3[nH]cnc3[C@@H]2c2nc3c(F)cccc3s2)s1 too.
1000 to 5000 nM

Check O=C(c1cnn2cc(F)ccc12)N1CCc2[nH]cnc2[C@H]1c1nc2c(F)cccc2s1 too.
< 500 nM

Try this molecule next: O=C(c1nnc(C2CC(F)(F)C2)o1)N1CCc2[nH]cnc2[C@H]1c1nc2c(F)cccc2s1
500 to 1000 nM

====

Would you mind telling me the reported AC50 of each entry?
# Experimental system: human PAH with the R408W mutation (Homo sapiens, UniProt P00439, R408W)
# Construct: expressed in transfected cells
# Sequence (P00439 1-452 R408W): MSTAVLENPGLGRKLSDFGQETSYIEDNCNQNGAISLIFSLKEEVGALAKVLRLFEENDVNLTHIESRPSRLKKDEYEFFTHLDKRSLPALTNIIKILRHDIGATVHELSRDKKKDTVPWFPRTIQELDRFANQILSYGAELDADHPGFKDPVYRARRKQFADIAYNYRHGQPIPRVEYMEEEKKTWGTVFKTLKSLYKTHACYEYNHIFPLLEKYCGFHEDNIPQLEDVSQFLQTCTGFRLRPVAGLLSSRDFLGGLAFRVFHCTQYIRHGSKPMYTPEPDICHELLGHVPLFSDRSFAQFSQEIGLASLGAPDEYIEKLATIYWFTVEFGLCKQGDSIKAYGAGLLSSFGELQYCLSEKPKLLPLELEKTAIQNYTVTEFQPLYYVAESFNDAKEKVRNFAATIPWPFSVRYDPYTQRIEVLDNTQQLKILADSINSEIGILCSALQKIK
# Test summary: Cell Based Phenylalanine Flux Assay
# Condition summary: A375 cells expressing human R408W PAH; 24 hrs compound incubation; 13C-Tyrosine by LC-MS; average where tested multiple times; read-out: AC50

Hi! What's the reported AC50 for Cc1nc(C2(O)CCC2)oc1C(=O)N1CCc2[nH]cnc2[C@H]1c1nc2c(F)cccc2s1 [Example 1913] on human PAH with the R408W mutation (Homo sapiens, UniProt P00439, R408W)?
0.5 to 1 µM

Please answer likewise for CN1CCN(c2nc(C(F)F)c(C(=O)N3CCc4[nH]cnc4[C@@H]3c3nc4c(F)cccc4s3)o2)CC1 [Example 2024]
1 to 5 µM

What do we get for O=C(c1cnn2cc(Br)ccc12)N1CCc2[nH]cnc2[C@@H]1c1nc2c(F)cccc2s1 [Example 1236] ?
1 to 5 µM

Queued: O=C(CCc1nccs1)N1CCc2[nH]cnc2[C@@H]1c1nc(-c2ccccc2)cs1 [Example 2144]
> 5 µM

Repeat for the following compound: O=C(c1ccnn1C(F)F)N1CCc2[nH]cnc2[C@H]1c1nc2ccccc2s1 [Example 1817]
< 0.5 µM

Would you kindly repeat that for Cc1cccc2nc([C@H]3c4nc[nH]c4CCN3C(=O)c3cnco3)sc12 [Example 2180] ?
> 5 µM

Could you do the same for O=C(C1CC1)N1CCc2[nH]cnc2[C@H]1c1nc2cccc(F)c2s1 [Example 1259] , please?
0.5 to 1 µM

Then what about the compound Cc1nn2ccccc2c1C(=O)N1CCc2[nH]cnc2[C@@H]1c1nc2ccccc2s1 [Example 1166] ?
0.5 to 1 µM

Origin of the recorded values: patent US20250171438A1
